meta.source: patent US20210130452A1

- Subject of test: T1, human IL-17A (human, UniProt Q16552 24-155, biotinylated with Sulfo-NHS-LC-Biotin in the AlphaScreen assays only)
- T1 construct: also called hIL-17A; recombinant human IL-17A
- Method description: AlphaScreen competition, hIL-17A - IL-17RA-Fc;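 note: receptor Fc-fusion plus Acceptor and streptavidin Donor beads incubated with the mixture for 1 h at room temperature before reading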
Experimental readout: IC50 (nM)
State the answer as a number, implicitly in nM.

Please review the entries below; each comes with its answer.
09D10 (VHH, Class 2 Nanobody (anti-IL-17A and IL-17A/F); not shown: c-myc, His6 tag) VHH: EVQLVESGGGLVQAGGSLSLSCAASGSVFRIDVMRWHRQAPGKQREFLASIASGGTTNYADSVKGRFTISRDNAKNTVYLQMNSLKPEDTAVYYCGANAESGPYTYWGLGTQVTVSS :: 0.211
02A10 (VHH, Class 2 Nanobody (anti-IL-17A and IL-17A/F); not shown: c-myc, His6 tag) VHH: EVQLVESGGGLVQPGGSLRLSCAASGFALGYYAIGWFRQAPGKEREGVSCDSSSDGRTYYGDSVKGRFTISTDSAKNTVYLQMNSLKPEDTAVYYCATCTDFEYDYWGQGTQVTVSS :: 0.115
09G10 (VHH, Class 2 Nanobody (anti-IL-17A and IL-17A/F); not shown: c-myc, His6 tag) VHH: EVQLVESGGGLVQAGGSLRLSCAASDSVFTAKAVGWYRQPPGLQREWVAIITSGGKTNYADSSVKGRFTVSVDKVKNTVTLQMNSLKPEDTAVYYCYAQWMGRDYWGQGTQVTVSS :: 0.046

Now for another entry.
Exercise: # input binder: 01D02 (VHH, Class 1 Nanobody (anti-IL-17A); not shown: c-myc, His6 tag) VHH: EVQLVESGGGLVQAGGSLRLSCAASGLSFSSYALGWFRQAPGKERDFVAAINWSGDNTHYADSVKGRFTISRDNAKNTVSLQMNSLKPEDTAVYYCAAQLGYESGYSLTYDYDYWGQGTQVTVSS ; wanted: its IC50
Solution: 0.13
